- assay.details: qHTS assay for small molecules that induce genotoxicity in human embryonic kidney cells expressing luciferase-tagged ATAD5 - cell viability (AID 651634); also: nearly all actives have a fitted effect of over 25% in size
- measurement.context: HEK293T ATAD5-luc cells viability, CellTiter-Fluor, 15.5 h; series mostly up to 83.3 µM
Results filed as inconclusive are left out. Active and inactive are the calls of the source. Calls follow the shape of the full dose curve.
Classes to choose from: true (1) = active, false (0) = inactive

{"columns": ["molecule", "category"],
 "data": [
  ["C1=CC2C3C=CC(C3)C2C1 (stereo unspecified)", "false (0)"]
]}

# ---- query molecule ----
Recorded test outcome, item `CCCCC1(COC(=O)CCC(=O)O)C(=O)N(c2ccccc2)N(c2ccccc2)C1=O`
false (0)

---

- assay.details: qHTS assay for identifying genotoxic compounds that show differential cytotoxicity against isogenic chicken DT40 cell lines with known DNA damage response pathways - wild type cell line (AID 743012); also: nearly all actives have a fitted effect of over 60% in size
- measurement.context: DT40 wild type chicken cells viability, CellTiter-Glo, 40 h; series mostly up to 68.4 µM
- From the text: U.S. Tox21 Program National Center for Advancing Translational Sciences [NCATS] NIH Chemical Genomics Center [NCGC] U.S. Environmental Protection Agency [EPA] National Institutes of Environmental Health Sciences [NIEHS] National Toxicology Program [NTP] U.S. Food and Drug Administration [FDA] Tox21 Assay Overview: DNA repair pathways play a critical role in cellular homeostasis by repairing DNA damage induced by endogenous processes and xenobiotics. […]
Results filed as inconclusive are left out. Active and inactive are the calls of the source. The call rests on the fitted dose curve; in most records, active means well fitted cell-killing curve with a large enough effect in the repeat runs; inconclusive means weak or mixed curves, or effect the other way; inactive means no such curve, though single readings can be large or run the other way.
Classes to choose from: active, inactive

Use the examples below as a reference point.
{"columns": ["compound", "category"],
 "data": [
  ["CN1CCC[C@H]1c1cccnc1", "inactive"],
  ["F[B-](F)(F)F", "inactive"],
  ["C=C(C)C(=O)OCC(C)O (stereo not drawn)", "inactive"],
  ["CCCCC1(COC(=O)CCC(=O)O)C(=O)N(c2ccccc2)N(c2ccccc2)C1=O", "inactive"],
  ["CC(O)(P(=O)(O)O)P(=O)(O)O", "inactive"],
  ["CCOC(N)=O", "inactive"],
  ["Cc1ncc([N+](=O)[O-])n1CCO", "inactive"],
  ["O=C1OC2(c3ccccc31)c1cc(Br)c(O)c(Br)c1Oc1c2cc(Br)c(O)c1Br", "inactive"]
]}

Recorded test outcome, item `NC1CCCCC1`
inactive

Recorded test outcome, item `O=C(Nc1ncc([N+](=O)[O-])s1)c1cccs1`
active

Recorded test outcome, item C1CCC(C(CC2CCCCN2)C2CCCCC2)CC1 (stereo not drawn)
active

Recorded test outcome, item `CCN(Cc1c(F)cccc1Cl)c1c([N+](=O)[O-])cc(C(F)(F)F)cc1[N+](=O)[O-]`
active

Recorded test outcome, item `CNNCc1ccc(C(=O)NC(C)C)cc1`
inactive

---

- assay.details: qHTS assay for small molecule agonists of the antioxidant response element (ARE) signaling pathway - cell viability counter screen (AID 743203); also: nearly all actives have a fitted effect of over 55% in size
- measurement.context: ARE-bla HepG2 viability, CellTiter-Glo luminescence, 16 h; series mostly up to 73.3 µM
Results filed as inconclusive are left out. Activity calls are given as the source filed them. Calls follow the shape of the full dose curve.
Classes to choose from: true (active), false (inactive)

Recorded test outcome, item `Cc1c(C(=O)O)c(O)cc2c1C(=O)c1c(O)c([C@@H]3O[C@H](CO)[C@@H](O)[C@H](O)[C@H]3O)c(O)c(O)c1C2=O`
false

Recorded test outcome, item `COc1ccc(OC(F)(F)F)cc1CN[C@H]1CCCN[C@H]1c1ccccc1`
true

Recorded test outcome, item `CCCCNC(=O)NS(=O)(=O)c1ccc(C)cc1`
false

Recorded test outcome, item `F[B-](F)(F)F`
false

Recorded test outcome, item `Cc1ccc(S(=O)(=O)O)cc1`
false

Recorded test outcome, item `Nc1c2c(nc3ccccc13)CCCC2`
false

Recorded test outcome, item `COc1ccc2c(c1)c(CC(=O)O)c(C)n2C(=O)c1ccc(Cl)cc1`
false

Recorded test outcome, item `O=S1(=O)OC(c2ccc(O)cc2)(c2ccc(O)cc2)c2ccccc21`
false
